Provide the recorded Mass, wet, root for the entries that follow.
- System: rice (Diamant variety)
- protocol notes: Rice seed treatment with BHMPA salts: germinating power
- Assay type: in vivo
- recorded conditions: rice seed treatment, comparison with Melaphen (Table XXXIII), solution 1 · 10^−9%
Give bare numbers, in g/100 plantlings.

Each of the following entries comes with a recorded value; kindly state Mass, wet, root for each.
1. O.O.O=P([O-])(CO)CO.O=P([O-])(CO)CO.[Co+2] [Co-salt, Cobalt BHMPA Salt]
2. O.O.O=P([O-])(CO)CO.O=P([O-])(CO)CO.[Mn+2] [Mn-salt, Manganese BHMPA Salt]
3. O=P([O-])(CO)CO.O=P([O-])(CO)CO.[Zn+2] [Zn-salt, Zinc BHMPA Salt]
4. O=P([O-])(CO)CO.O=P([O-])(CO)CO.[Ca+2] [Ca-salt, Calcium BHMPA Salt]

**A:**
[1.37, 1.34, 1.54, 1.33]

----------
Provide the recorded Mass, wet, sprout, + % to control for the entries that follow.
- Test system: winter wheat (Vershin variety)
- protocol notes: Winter wheat seed treatment with BHMPA salts: germinating power (length and mass of roots and sprouts)
- Assay type: in vivo
- recorded conditions: 1·10^−10% solution
Give bare numbers, in %.

Each of the following entries comes with a recorded value; kindly state Mass, wet, sprout, + % to control for each.
1. O=P([O-])(CO)CO.O=P([O-])(CO)CO.[Zn+2] [Zn-salt, Zinc BHMPA Salt]
2. O=P([O-])(CO)CO.[Na+] [Na-salt, Sodium BHMPA Salt]
3. O=P([O-])(CO)CO.O=P([O-])(CO)CO.[Mg+2] [Mg-salt, Magnesium BHMPA Salt]
4. O=P([O-])(CO)CO.O=P([O-])(CO)CO.[Ca+2] [Ca-salt, Calcium BHMPA Salt]
5. O.O.O=P([O-])(CO)CO.O=P([O-])(CO)CO.[Mn+2] [Mn-salt, Manganese BHMPA Salt]
6. O.O.O=P([O-])(CO)CO.O=P([O-])(CO)CO.[Co+2] [Co-salt, Cobalt BHMPA Salt]

**A:**
1. 4
2. 14
3. 4.5
4. 6.5
5. 28
6. 22

----------
- System: rice (Diamant variety)
- protocol notes: Rice seed treatment with BHMPA salts: germination energy and germination rate
- Type: in vivo
- recorded conditions: seed treatment; concentration 1 · 10^−7%
endpoint: Germination energy (%)
Give bare numbers, in %.

O=P([O-])(CO)CO.[Na+] [Na-salt, Sodium BHMPA Salt] = 76.7
O=P([O-])(CO)CO.O=P([O-])(CO)CO.[Mg+2] [Mg-salt, Magnesium BHMPA Salt] = 80.3
O=P([O-])(CO)CO.O=P([O-])(CO)CO.[Ca+2] [Ca-salt, Calcium BHMPA Salt] = 76.0
O.O.O=P([O-])(CO)CO.O=P([O-])(CO)CO.[Mn+2] [Mn-salt, Manganese BHMPA Salt] = 79.3

Attention now shifts to the item below.
**Q:** Quick one: Germination energy of O.O.O=P([O-])(CO)CO.O=P([O-])(CO)CO.[Co+2] [Co-salt, Cobalt BHMPA Salt] ?
**A:** 83.0

----------
- Tested on: winter wheat (Vershin variety)
- protocol notes: Winter wheat seed treatment with BHMPA salts: germinating power (length and mass of roots and sprouts)
- Type: in vivo
- recorded conditions: 1·10^−11% solution
endpoint: Length, sprout, + % to control (%)
Numbers only, in %.

O=P([O-])(CO)CO.O=P([O-])(CO)CO.[Zn+2] [Zn-salt, Zinc BHMPA Salt] = 1

Each of the following entries comes with a recorded value; kindly state Length, sprout, + % to control for each.
1. O.O.O=P([O-])(CO)CO.O=P([O-])(CO)CO.[Co+2] [Co-salt, Cobalt BHMPA Salt]
2. O=P([O-])(CO)CO.[Na+] [Na-salt, Sodium BHMPA Salt]

**A:**
11
5

Each of the following entries comes with a recorded value; kindly state Length, sprout, + % to control for each.
1. O=P([O-])(CO)CO.O=P([O-])(CO)CO.[Mg+2] [Mg-salt, Magnesium BHMPA Salt]
2. O=P([O-])(CO)CO.O=P([O-])(CO)CO.[Ca+2] [Ca-salt, Calcium BHMPA Salt]

**A:**
[7, 19]

**Q:** Quick one: Length, sprout, + % to control of O.O.O=P([O-])(CO)CO.O=P([O-])(CO)CO.[Mn+2] [Mn-salt, Manganese BHMPA Salt] ?
**A:** 69

----------
- Test system: winter wheat (Vershin variety)
- protocol notes: Winter wheat seed treatment with BHMPA salts: germinating power (length and mass of roots and sprouts)
- Assay type: in vivo
- recorded conditions: 1·10^−11% solution
- Method: Experimental versions—soaking seeds in BHMPA solutions and solutions of BHMPA Ca, Mg, Na, Co, Mn, Cu, and Zn salts at 1·10^−6-1·10^−12% concentrations (doses). The studies were conducted in laboratory in Petri dishes; seed bed—two layers of filter paper. […] Seed germination energy and rate were calculated in percent as an arithmetic mean of the four experimental results (germination energy on the 4th day, wheat germination on the 8th day, rice and corn germination—on the 7th day). […]
endpoint: Mass, dry, root, + % to control (%)
One number for each entry, in %.

Example entries and their recorded answers appear below.
O=P([O-])(CO)CO.O=P([O-])(CO)CO.[Mg+2] [Mg-salt, Magnesium BHMPA Salt] = 27.5
O=P([O-])(CO)CO.O=P([O-])(CO)CO.[Zn+2] [Zn-salt, Zinc BHMPA Salt] = 10.5
O=P([O-])(CO)CO.O=P([O-])(CO)CO.[Ca+2] [Ca-salt, Calcium BHMPA Salt] = 44
O.O.O=P([O-])(CO)CO.O=P([O-])(CO)CO.[Co+2] [Co-salt, Cobalt BHMPA Salt] = 17
O=P([O-])(CO)CO.[Na+] [Na-salt, Sodium BHMPA Salt] = 5

**Q:** Request: Mass, dry, root, + % to control, test system winter wheat (Vershin variety), entry O.O.O=P([O-])(CO)CO.O=P([O-])(CO)CO.[Mn+2] [Mn-salt, Manganese BHMPA Salt]
**A:** 40.5

----------
- System: winter wheat (Vershin variety)
- protocol notes: Winter wheat seed treatment with BHMPA salts: germinating power (length and mass of roots and sprouts)
- Format: in vivo
- recorded conditions: 1·10^−11% solution
Label rule, in plain words: Mass, wet, root of 3 g/100 plantlings and up is Y, under 3 g/100 plantlings is N.

Study these solved cases before continuing.
O.O.O=P([O-])(CO)CO.O=P([O-])(CO)CO.[Co+2] [Co-salt, Cobalt BHMPA Salt] = Y
O=P([O-])(CO)CO.[Na+] [Na-salt, Sodium BHMPA Salt] = N
O=P([O-])(CO)CO.O=P([O-])(CO)CO.[Ca+2] [Ca-salt, Calcium BHMPA Salt] = Y
O.O.O=P([O-])(CO)CO.O=P([O-])(CO)CO.[Mn+2] [Mn-salt, Manganese BHMPA Salt] = N
O=P([O-])(CO)CO.O=P([O-])(CO)CO.[Mg+2] [Mg-salt, Magnesium BHMPA Salt] = Y

**Q:** Would you say O=P([O-])(CO)CO.O=P([O-])(CO)CO.[Zn+2] [Zn-salt, Zinc BHMPA Salt] shows Mass, wet, root at minimum 3 g/100 plantlings?
**A:** N

----------
- Test system: winter wheat (Vershin variety)
- protocol notes: Winter wheat seed treatment with BHMPA salts: germination energy and germination rate
- Format: in vivo
- recorded conditions: winter wheat Vershin; 1·10^−6% solution
Label rule, in plain words: Germination rate of 90% and up is 1.0, under 90% is 0.0.

Study these solved cases before continuing.
O.O.O=P([O-])(CO)CO.O=P([O-])(CO)CO.[Mn+2] [Mn-salt, Manganese BHMPA Salt] = 0.0
O.O.O=P([O-])(CO)CO.O=P([O-])(CO)CO.[Co+2] [Co-salt, Cobalt BHMPA Salt] = 1.0
O=P([O-])(CO)CO.[Na+] [Na-salt, Sodium BHMPA Salt] = 0.0

Here's the next entry for you.
**Q:** Would you say O=P([O-])(CO)CO.O=P([O-])(CO)CO.[Zn+2] [Zn-salt, Zinc BHMPA Salt] shows Germination rate at minimum 90%?
**A:** 1.0

----------
- Tested on: winter wheat (Vershin variety)
- protocol notes: Winter wheat seed treatment with BHMPA salts: germinating power (length and mass of roots and sprouts)
- Format: in vivo
- recorded conditions: 1·10^−10% solution
endpoint: Length, sprout, + % to control (%)
Answers are plain numbers, in %.

O=P([O-])(CO)CO.O=P([O-])(CO)CO.[Zn+2] [Zn-salt, Zinc BHMPA Salt] = 5.5
O.O.O=P([O-])(CO)CO.O=P([O-])(CO)CO.[Mn+2] [Mn-salt, Manganese BHMPA Salt] = 97
O.O.O=P([O-])(CO)CO.O=P([O-])(CO)CO.[Co+2] [Co-salt, Cobalt BHMPA Salt] = 15

Each of the following entries comes with a recorded value; kindly state Length, sprout, + % to control for each.
1. O=P([O-])(CO)CO.O=P([O-])(CO)CO.[Mg+2] [Mg-salt, Magnesium BHMPA Salt]
2. O=P([O-])(CO)CO.O=P([O-])(CO)CO.[Ca+2] [Ca-salt, Calcium BHMPA Salt]
3. O=P([O-])(CO)CO.[Na+] [Na-salt, Sodium BHMPA Salt]

**A:**
4
12
6.5
